Values from patent US12528761B2

Kindly supply the reported EC50 values for the records listed here.
Biological target: TRβ (Homo sapiens, UniProt P10828)
Construct: expressed in transfected cells; host or cells: HEK293
Sequence (P10828 217-461 limits assumed): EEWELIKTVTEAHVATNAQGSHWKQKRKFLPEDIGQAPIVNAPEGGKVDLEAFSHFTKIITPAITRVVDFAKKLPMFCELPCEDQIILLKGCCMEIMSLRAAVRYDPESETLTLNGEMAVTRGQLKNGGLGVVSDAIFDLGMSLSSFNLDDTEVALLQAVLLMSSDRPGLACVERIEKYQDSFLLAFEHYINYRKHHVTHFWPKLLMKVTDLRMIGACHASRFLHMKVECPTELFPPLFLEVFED
Experiment: TR reporter-gene assay (Gal4 DBD hybrid, luciferase), TRβ
Type: cell-based
Conditions: HEK293-derived reporter cells, 24 hr treatment; read-out: TRβ EC50

Previously resolved entries follow.
> print(dat)
                                   compound  measvalue
1  CC(C)c1c(O)ccc(Cc2c(Cl)cc(CSCC(=O)O)cc2Cl)c1F  < 0.01 µM
2  CCOC(=O)/C(=C\c1cc(Cl)c(Cc2ccc(O)c(C(C)C)c2)c(Cl)c1)C(=O)O     > 1 µM
3  O=C(O)CCc1cc(Cl)c(Cc2ccc(O)c(-c3cc(OC(F)F)ccc3F)c2F)c(Cl)c1  < 0.01 µM

Record EC50 for all entries; do not skip any.
1. CC(c1ccc(F)cc1)c1cc(Cc2c(Cl)cc(CC(=O)O)cc2Cl)ccc1O (stereo not drawn)
2. CC(Oc1cc(Cl)c(Cc2ccc(O)c(C(C)C)c2F)c(Cl)c1)C(=O)O (stereo not drawn)
3. CC(C)c1c(O)ccc(Cc2c(Cl)cc(OCCCCC(=O)O)cc2Cl)c1F
4. CC(c1ccc(F)cc1)c1c(O)ccc(Cc2c(Cl)cc(CC(=O)O)cc2Cl)c1F (stereo not drawn)
5. Cc1cc([S+]([O-])CC(=O)O)cc(Cl)c1Cc1ccc(O)c(C(C)C)c1 (stereo not drawn)
6. CC(C)c1cc(Cc2c(Cl)cc(NC(=O)CC(=O)O)cc2Cl)ccc1O
7. CC(C)c1c(O)ccc(Cc2c(Cl)cc(OCCCC(=O)O)cc2Cl)c1F
8. Cc1cc(NCC(=O)O)c(F)c(Cl)c1Cc1ccc(O)c(C(C)C)c1

1: < 0.01 µM; 2: 0.01 to 0.1 µM; 3: 0.01 to 0.1 µM; 4: < 0.01 µM; 5: > 1 µM; 6: 0.1 to 1 µM; 7: 0.1 to 1 µM; 8: 0.01 to 0.1 µM

State the recorded EC50 for every item in the following list.
1. CC(C)c1c(O)ccc(Cc2c(Cl)cc(CNCC(=O)O)c(F)c2Cl)c1F
2. CC(C)c1c(O)ccc(Cc2c(Cl)cc(/C=C/C(=O)O)cc2Cl)c1F
3. Cc1cc(NCC(=O)O)cc(Cl)c1Cc1ccc(O)c(C(C)C)c1
4. CC(C)c1c(O)ccc(Cc2c(Cl)cc(C(C)C(=O)O)cc2Cl)c1F (stereo not drawn)
5. CC(C)c1cc(Cc2c(Cl)cc(OCCCC(=O)O)cc2Cl)ccc1O

1. 0.01 to 0.1 µM
2. < 0.01 µM
3. 0.01 to 0.1 µM
4. 0.1 to 1 µM
5. 0.1 to 1 µM

Please look at the items below and tell me EC50 for each one, in order.
1. Cc1c(F)c(CNCC(=O)O)cc(Cl)c1Cc1ccc(O)c(C(C)C)c1
2. CC(C)c1cc(Cc2c(Cl)cc(CC3NC(=O)NC3=O)cc2Cl)ccc1O (stereo not drawn)

1. 0.1 to 1 µM
2. > 1 µM
